# Tested on: pigweed
# ASSAY: Test C preemergence
# Format: in vivo, Amaranthus retroflexus
# STATED_CONDITIONS: preemergence, 31 g ai/ha; visual rating, scale 0 to 100 (0 no effect, 100 complete control), 13 to 15 days
Below: a set of entries, each annotated with reported Pigweed plant response rating.

CHEMICAL_SMILES	Pigweed plant response rating
CCNC(=O)c1cc(CC)n(Cc2cc(C(F)(F)F)nn2C)n1	85
CCc1cc(-c2ccc(C(F)(F)F)cc2)nn1Cc1ccnc(C(F)(F)F)c1	95
CCCc1cc(C(=O)NC2CC2)nn1Cc1ccnc(OC(F)F)c1	95
CCCNC(=O)c1cc(OCC)n(Cc2ccnc(C(F)(F)F)c2)n1	70
O=C(NC1CC1)c1cc(CCF)n(Cc2ccnc(C(F)(F)F)c2)n1	100
